assay: Systemic availability of hydrocodone in dogs after oral administration of hydrocodone or hydrocodone succinyl valine enol ester; settings: male, Beagle, dog, plasma, po, 1 mg hydrocodone free base equivalents/kg, t½ of hydrocodone, male dogs, individual dogs 1M-5M
metric_name: half-life (h)

In [3]: df
Out[3]:
                                   compound  reported_result
0  COc1ccc2c3c1O[C@H]1C(=O)CC[C@H]4[C@@H](C2)N(C)CC[C@]314 [Hydrocodone, hydrocodone]             1.31

----------
assay: In vitro stability of dicarboxylate amino acid ester prodrugs in simulated gastric and intestinal juice, distilled water and pH 10 buffer (HPLC); conditions: pH 5.9, 2 h, 20° C.
metric_name: Distilled water (pH 5.9): % remaining after 2 h/20° C.

molecule	reported_result
COc1ccc2c3c1O[C@H]1C(OC(=O)CCC(=O)NC(C(=O)O)C(C)C)=CC[C@@]4(O)[C@@H](C2)N(C)CC[C@]314 (stereo in doubt)	100%
COc1ccc2c3c1O[C@H]1[C@@H](OC(=O)CCC(=O)NC(C(=O)O)C(C)C)CCC4[C@@H](C2)N(C)CC[C@@]341 (stereo in doubt)	100%
COc1ccc2c3c1O[C@H]1C(OC(=O)CCC(=O)N4CCC[C@H]4C(=O)O)=CC[C@@]4(O)[C@@H](C2)N(C)CC[C@]314 [Oxycodone succinyl proline ester]	100%
COc1ccc2c3c1OC1C(OC(=O)CCC(=O)N[C@@H](CC(C)C)C(=O)O)=CC[C@@]4(O)[C@@H](C2)N(C)CC[C@]314 (some centres unmarked) [Oxycodone-Succinyl-Leu Enol Ester]	100%
COc1ccc2c3c1O[C@H]1[C@@H](OC(=O)CCC(=O)N[C@H](C(=O)O)C(C)C)C=CC4[C@@H](C2)N(C)CC[C@@]341 (stereo partly drawn) [Codeine-[succinyl-(S)-valine] ester, codeine-[succinyl-(S)-valine]ester]	100%
